IC50 listing for selected molecules.
biological target: PI3K-delta (Homo sapiens, UniProt O00329); construct: Thermo Fisher Scientific-Biosciences Life Sciences Solutions, Madison, WI (contract assay service); assay: PI3K inhibition (Thermo Fisher Scientific); format: biochemical; conditions: 10-point curve, grouped by potency; read-out: IC50 P13K δ
Sequence (O00329 whole entry): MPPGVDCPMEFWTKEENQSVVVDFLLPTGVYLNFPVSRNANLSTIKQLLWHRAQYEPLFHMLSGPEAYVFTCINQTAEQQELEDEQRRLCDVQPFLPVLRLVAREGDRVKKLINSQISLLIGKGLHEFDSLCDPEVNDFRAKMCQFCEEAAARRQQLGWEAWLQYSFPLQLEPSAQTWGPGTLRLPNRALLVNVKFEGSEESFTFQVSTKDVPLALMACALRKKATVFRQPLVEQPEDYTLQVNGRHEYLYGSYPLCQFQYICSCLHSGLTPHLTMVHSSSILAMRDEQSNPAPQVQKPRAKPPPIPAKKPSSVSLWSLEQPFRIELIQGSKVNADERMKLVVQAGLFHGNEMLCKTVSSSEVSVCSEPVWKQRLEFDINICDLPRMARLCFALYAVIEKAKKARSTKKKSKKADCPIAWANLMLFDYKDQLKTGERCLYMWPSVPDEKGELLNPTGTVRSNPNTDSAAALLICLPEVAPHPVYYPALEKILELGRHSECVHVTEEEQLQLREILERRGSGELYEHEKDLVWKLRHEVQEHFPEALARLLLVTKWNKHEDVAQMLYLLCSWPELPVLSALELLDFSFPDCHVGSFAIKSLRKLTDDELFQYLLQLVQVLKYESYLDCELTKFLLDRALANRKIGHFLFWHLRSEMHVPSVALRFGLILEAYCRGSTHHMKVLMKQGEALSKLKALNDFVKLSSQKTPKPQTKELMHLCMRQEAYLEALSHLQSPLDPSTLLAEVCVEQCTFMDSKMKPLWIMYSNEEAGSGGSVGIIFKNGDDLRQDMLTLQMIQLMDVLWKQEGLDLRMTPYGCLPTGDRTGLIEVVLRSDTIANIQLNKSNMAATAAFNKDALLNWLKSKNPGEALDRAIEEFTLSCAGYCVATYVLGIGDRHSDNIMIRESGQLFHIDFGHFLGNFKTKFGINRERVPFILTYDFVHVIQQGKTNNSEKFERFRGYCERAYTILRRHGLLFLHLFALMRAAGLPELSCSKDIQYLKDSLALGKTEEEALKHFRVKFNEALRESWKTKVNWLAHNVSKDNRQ
Sequence (P27986 whole entry partner): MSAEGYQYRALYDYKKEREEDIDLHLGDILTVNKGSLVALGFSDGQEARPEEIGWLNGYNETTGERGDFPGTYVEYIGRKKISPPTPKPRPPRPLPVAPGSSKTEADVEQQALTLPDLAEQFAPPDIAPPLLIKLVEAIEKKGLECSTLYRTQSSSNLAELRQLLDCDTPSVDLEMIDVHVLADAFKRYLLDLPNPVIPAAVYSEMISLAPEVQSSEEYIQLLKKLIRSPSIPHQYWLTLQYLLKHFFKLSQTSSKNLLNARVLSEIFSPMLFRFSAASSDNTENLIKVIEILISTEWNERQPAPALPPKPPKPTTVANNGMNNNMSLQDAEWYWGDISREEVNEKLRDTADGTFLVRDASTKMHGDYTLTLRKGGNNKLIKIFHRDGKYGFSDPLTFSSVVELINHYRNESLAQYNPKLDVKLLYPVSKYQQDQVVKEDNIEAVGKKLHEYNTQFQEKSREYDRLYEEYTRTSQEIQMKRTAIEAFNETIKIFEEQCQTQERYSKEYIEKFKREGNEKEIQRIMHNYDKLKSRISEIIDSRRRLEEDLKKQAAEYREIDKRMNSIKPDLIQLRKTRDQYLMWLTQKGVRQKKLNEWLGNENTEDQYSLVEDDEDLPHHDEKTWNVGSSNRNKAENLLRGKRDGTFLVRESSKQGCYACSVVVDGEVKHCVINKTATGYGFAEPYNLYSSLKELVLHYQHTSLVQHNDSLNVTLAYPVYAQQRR
Structures can show the parent of a compound that is named as a salt.

Solved entries (count: 5):
CN(C)C(=O)c1cc2cnc(Nc3ccc(-c4csc5c(=O)cc(N6CCOCC6)oc45)cn3)nc2n1C1CCCC1 [Compound 3]	< 100 nM
COC(=O)c1cc(Nc2ncc3cc(C(=O)N(C)C)n(C4CCCC4)c3n2)ccc1-c1csc2c(=O)cc(N3CCOCC3)oc12 [Compound 7]	< 100 nM
CN(C)C(=O)c1cc2cnc(Nc3ccc(-c4csc5c(=S)cc(N6CCOCC6)oc45)cc3)nc2n1C1CCCC1 [Compound 11]	100 to 1000 nM
CN(C)C(=O)c1cc2cnc(Nc3ccc(-c4csc5c(=O)cc(N6CCN(C(=O)OC(C)(C)C)CC6)oc45)cc3)nc2n1C1CCCC1 [Compound 18]	100 to 1000 nM
CN(C)C(=S)c1cc2cnc(Nc3ccc(-c4csc5c(=S)cc(N6CCOCC6)oc45)cc3)nc2n1C1CCCC1 [Compound 12]	100 to 1000 nM

Field IC50 (PI3K-delta (Homo sapiens, UniProt O00329)), entry CC(=O)c1c(C)c2cnc(Nc3ccc(-c4csc5c(=O)cc(N6CCOCC6)oc45)cc3)nc2n(C2CCCC2)c1=O [Compound 6] : < 100 nM

IC50 for PI3K-delta (Homo sapiens, UniProt O00329) with input CN(C)C(=O)c1cc2cnc(Nc3ccc(-c4csc5c(=O)cc(N6CCNCC6)oc45)cc3)nc2n1C1CCCC1 [compound 2, hydrochloride] equals 5000 to 50000 nM

====

target: CDK6 (Homo sapiens); construct: Reaction Biology Corp., Malvern, PA (contract assay service); assay: Cyclin dependent kinase inhibition (Reaction Biology Corp.); assay type: biochemical
Sequence (Q00534 whole entry): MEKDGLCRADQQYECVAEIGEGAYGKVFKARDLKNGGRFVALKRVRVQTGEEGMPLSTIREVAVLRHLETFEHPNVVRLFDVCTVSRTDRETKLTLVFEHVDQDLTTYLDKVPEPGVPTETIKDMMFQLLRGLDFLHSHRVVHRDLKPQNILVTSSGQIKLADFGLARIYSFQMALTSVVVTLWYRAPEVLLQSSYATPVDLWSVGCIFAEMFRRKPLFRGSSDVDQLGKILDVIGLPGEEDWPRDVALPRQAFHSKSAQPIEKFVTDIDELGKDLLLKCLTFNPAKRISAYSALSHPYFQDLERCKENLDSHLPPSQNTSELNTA
Sequence (P24385 whole entry partner): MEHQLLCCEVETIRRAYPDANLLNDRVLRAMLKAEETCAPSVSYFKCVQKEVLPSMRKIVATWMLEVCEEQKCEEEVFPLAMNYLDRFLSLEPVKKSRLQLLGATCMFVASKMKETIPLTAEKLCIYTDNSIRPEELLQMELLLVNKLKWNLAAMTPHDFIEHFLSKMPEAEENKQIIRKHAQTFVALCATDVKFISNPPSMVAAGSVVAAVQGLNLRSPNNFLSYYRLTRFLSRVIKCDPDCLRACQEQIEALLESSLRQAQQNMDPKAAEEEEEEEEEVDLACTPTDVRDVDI
Measured parameter: IC50 (nM)
Enter your answer as a number in nM; do not include the unit.

IC50 on CDK6 (Homo sapiens) for CN(C)C(=O)c1cc2cnc(Nc3ccc(-c4csc5c(=O)cc(N6CCOCC6)oc45)cc3)nc2n1C1CCCC1 is 3.26

====

molecular target: CDK9 (Homo sapiens)
Sequence (P50750 whole entry): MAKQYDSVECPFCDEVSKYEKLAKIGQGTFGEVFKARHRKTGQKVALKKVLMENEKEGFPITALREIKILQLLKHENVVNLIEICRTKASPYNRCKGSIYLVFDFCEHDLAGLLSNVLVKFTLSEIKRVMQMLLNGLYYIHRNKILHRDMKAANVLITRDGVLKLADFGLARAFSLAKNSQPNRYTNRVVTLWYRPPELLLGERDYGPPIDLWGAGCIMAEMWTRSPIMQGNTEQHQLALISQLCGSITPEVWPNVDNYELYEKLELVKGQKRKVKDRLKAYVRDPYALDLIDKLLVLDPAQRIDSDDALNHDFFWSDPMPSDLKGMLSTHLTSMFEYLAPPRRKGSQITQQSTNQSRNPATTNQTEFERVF
Sequence (O60563 whole entry partner): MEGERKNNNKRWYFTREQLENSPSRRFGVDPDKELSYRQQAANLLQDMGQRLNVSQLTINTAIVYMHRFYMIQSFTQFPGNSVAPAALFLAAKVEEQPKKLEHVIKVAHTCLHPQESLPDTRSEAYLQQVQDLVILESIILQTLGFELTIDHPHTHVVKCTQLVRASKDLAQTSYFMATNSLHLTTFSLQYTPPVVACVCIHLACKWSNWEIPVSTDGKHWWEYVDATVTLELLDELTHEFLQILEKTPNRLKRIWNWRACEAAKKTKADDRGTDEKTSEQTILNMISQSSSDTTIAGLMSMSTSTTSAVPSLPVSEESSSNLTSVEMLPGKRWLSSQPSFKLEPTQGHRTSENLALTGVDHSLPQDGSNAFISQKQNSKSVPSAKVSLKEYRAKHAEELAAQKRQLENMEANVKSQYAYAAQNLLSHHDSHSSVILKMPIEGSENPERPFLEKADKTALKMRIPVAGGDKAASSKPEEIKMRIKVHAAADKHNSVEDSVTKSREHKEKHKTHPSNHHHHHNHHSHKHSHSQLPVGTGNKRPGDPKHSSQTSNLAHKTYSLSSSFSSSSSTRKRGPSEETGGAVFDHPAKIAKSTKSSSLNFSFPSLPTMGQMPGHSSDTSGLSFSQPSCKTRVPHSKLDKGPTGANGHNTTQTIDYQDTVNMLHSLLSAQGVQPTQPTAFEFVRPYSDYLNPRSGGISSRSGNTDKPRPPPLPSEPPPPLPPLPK
Measured parameter: IC50 (nM)
Just the number please, in nM, no unit attached.

The reported CDK9 (Homo sapiens) IC50 of CN(C)C(=O)c1cc2cnc(Nc3ccc(-c4csc5c(=O)cc(N6CCOCC6)oc45)cc3)nc2n1C1CCCC1 is 2

====

experiment: Oral pharmacokinetic (PK) study (Quintara Discovery); type: in vivo; settings: plasma; oral gavage 30 mg/kg, Hot Rod Formulation Kit #8
Measured parameter: Tmax (min)
Write down the numeric answer in min and omit the unit.

Reported Tmax ( CN(C)C(=O)c1cc2cnc(Nc3ccc(-c4csc5c(=O)cc(N6CCOCC6)oc45)cc3)nc2n1C1CCCC1 [Compound 1] ) = 30

====

molecular target: BRD4 binding domain 2 (Homo sapiens); construct: Reaction Biology Corp., Malvern, PA (contract assay service); assay: Bromodomain protein inhibition (Reaction Biology Corp.); details: read-out: IC50 BRD4 binding domain 2
pIC50: −log10 of the molar value.
Measured parameter: pIC50

Entry CN1CCN(c2ccc(Nc3ncc4cc(C#N)c(=O)n(C5CCCC5)c4n3)cc2)CC1 [ON123300, reference compound] , pIC50 reported as < 4.30

====

target: UniProt P78527; test: DNA-PK inhibition; type: biochemical
Measured parameter: IC50 (nM)
Give just the number in nM; leave the unit off.

Consider CN(C)C(=O)c1cc2cnc(Nc3ccc(-c4csc5c(=O)cc(N6CCOCC6)oc45)cc3)nc2n1C1CCCC1 [Compound 1] . Its measured IC50 is 21

====

biological target: BRD4 binding domain 1 (Homo sapiens, UniProt O60885); construct: Reaction Biology Corp., Malvern, PA (contract assay service); test: Bromodomain protein inhibition (Reaction Biology Corp.); conditions: 10-point curve, grouped by potency; read-out: IC50 BRD4-1
pIC50: −log10 of the molar value. Counter-ions that a name gives are not always drawn.
Measured parameter: pIC50

The cases that follow already have their pIC50 on record.
COC(=O)c1cc(-c2csc3c(=O)cc(N4CCOCC4)oc23)ccc1Nc1ncc2cc(C(=O)N(C)C)n(C3CCCC3)c2n1	6.00 to 7.00
Cc1nc2c(F)cc(-c3nc(Nc4ccc(-c5csc6c(=O)cc(N7CCOCC7)oc56)cc4)ncc3F)cc2n1C(C)C	< 4.30
CN(C)C(=O)c1cc2cnc(Nc3ccc(-c4csc5c(=S)cc(N6CCOCC6)oc45)cc3)nc2n1C1CCCC1	5.30 to 6.00
COC(=O)c1cc(Nc2ncc3cc(C(=O)N(C)C)n(C4CCCC4)c3n2)ccc1-c1csc2c(=O)cc(N3CCOCC3)oc12	6.00 to 7.00
CN(C)C(=O)c1cc2cnc(Nc3ccc(-c4csc5c(=O)cc(N6CCOCC6)oc45)c(C(=O)O)c3)nc2n1C1CCCC1	> 7.00
CN(C)C(=O)c1cc2cnc(Nc3ccc(-c4csc5c(=O)cc(N6CCN(C(=O)OC(C)(C)C)CC6)oc45)cc3)nc2n1C1CCCC1	6.00 to 7.00

Bench note, BRD4 binding domain 1 (Homo sapiens, UniProt O60885): CN(C)C(=O)c1cc2cnc(Nc3ccc(-c4csc5c(=O)cc(N6CCNCC6)oc45)cc3)nc2n1C1CCCC1 [compound 2, hydrochloride] , pIC50 reads 6.00 to 7.00

Readout pIC50 for CN(C)C(=S)c1cc2cnc(Nc3ccc(-c4csc5c(=S)cc(N6CCOCC6)oc45)cc3)nc2n1C1CCCC1 , test system BRD4 binding domain 1 (Homo sapiens, UniProt O60885), was 4.30 to 5.30

Field pIC50 (system: BRD4 binding domain 1 (Homo sapiens, UniProt O60885)) for entry CC(=O)c1c(C)c2cnc(Nc3ccc(-c4csc5c(=O)cc(N6CCOCC6)oc45)cc3)nc2n(C2CCCC2)c1=O = 6.00 to 7.00

====

target: UniProtKB P24941
Measured parameter: pIC50
Scale explanation: pIC50 corresponds to minus log10 of a concentration expressed in moles per litre.

In plain terms, CN(C)C(=O)c1cc2cnc(Nc3ccc(-c4csc5c(=O)cc(N6CCOCC6)oc45)cc3)nc2n1C1CCCC1 has a documented pIC50 of 6.30

====

test: Oral pharmacokinetic (PK) study (Quintara Discovery); assay type: in vivo; details: plasma; oral gavage 30 mg/kg, 24 hours
Measured parameter: concentration at 24 h (nM)
Express your answer in nM, writing the number without its unit.

Reported concentration at 24 h of CN(C)C(=O)c1cc2cnc(Nc3ccc(-c4csc5c(=O)cc(N6CCOCC6)oc45)cc3)nc2n1C1CCCC1 : 63

====

target: BRD4 binding domain 2 (Homo sapiens, UniProt O60885); construct: Reaction Biology Corp., Malvern, PA (contract assay service); assay: Bromodomain protein inhibition (Reaction Biology Corp.); conditions: 10-point curve, grouped by potency; read-out: IC50 BRD4-2
Counter-ions that a name gives are not always drawn.
We begin with a simple list: items and their reported IC50.

The following compounds have reported results that may help.
CN(C)C(=S)c1cc2cnc(Nc3ccc(-c4csc5c(=S)cc(N6CCOCC6)oc45)cc3)nc2n1C1CCCC1	5000 to 50000 nM
CN(C)C(=O)c1cc2cnc(Nc3ccc(-c4csc5c(=S)cc(N6CCOCC6)oc45)cc3)nc2n1C1CCCC1	1000 to 5000 nM
CN(C)C(=O)c1cc2cnc(Nc3ccc(-c4csc5c(=O)cc(N6CCOCC6)oc45)c(C(=O)O)c3)nc2n1C1CCCC1	100 to 1000 nM
COC(=O)c1cc(-c2csc3c(=O)cc(N4CCOCC4)oc23)ccc1Nc1ncc2cc(C(=O)N(C)C)n(C3CCCC3)c2n1	1000 to 5000 nM
CC(=O)c1c(C)c2cnc(Nc3ccc(-c4csc5c(=O)cc(N6CCOCC6)oc45)cc3)nc2n(C2CCCC2)c1=O	100 to 1000 nM

compound CN(C)C(=O)c1cc2cnc(Nc3ccc(-c4csc5c(=O)cc(N6CCNCC6)oc45)cc3)nc2n1C1CCCC1 [compound 2, hydrochloride] , IC50 observed: 100 to 1000 nM

Entry COC(=O)c1cc(Nc2ncc3cc(C(=O)N(C)C)n(C4CCCC4)c3n2)ccc1-c1csc2c(=O)cc(N3CCOCC3)oc12 — recorded IC50 = 100 to 1000 nM

Note to self: IC50 recorded for CN(C)C(=O)c1cc2cnc(Nc3ccc(-c4csc5c(=O)cc(N6CCOCC6)oc45)cn3)nc2n1C1CCCC1 was 100 to 1000 nM

Sample CN(C)C(=O)c1cc2cnc(Nc3ccc(-c4csc5c(=O)cc(N6CCN(C(=O)OC(C)(C)C)CC6)oc45)cc3)nc2n1C1CCCC1 ; IC50 observed: 1000 to 5000 nM

Lab book: IC50 of Cc1nc2c(F)cc(-c3nc(Nc4ccc(-c5csc6c(=O)cc(N7CCOCC7)oc56)cc4)ncc3F)cc2n1C(C)C noted as > 50000 nM
